Test system: NCI-H226
Test: NCI tumour cell line growth inhibition, 48 h
Calls of active or inactive are those of the source. Cut-off read from the data, not from the text of the source: active = GI50 up to about 1.1 µM and inactive = higher.
RECORDED_ENDPOINT: GI50

[
  {
    "MOLECULE": "COc1cc(CNc2nc3ccccc3n2Cc2ccccc2)cc(CN2CCOCC2)c1O",
    "RECORDED_ENDPOINT": "GI50",
    "VAL": "30.8 µM (inactive)"
  },
  {
    "MOLECULE": "c1n[nH]cc1C12C3C4C5C3C1C5C42 (centres undefined)",
    "RECORDED_ENDPOINT": "GI50",
    "VAL": "> 100 µM (inactive)"
  },
  {
    "MOLECULE": "CCOC(=O)C1=C(C)NC(=O)NC1c1ccc(N(CCCl)CCCl)cc1Cl (centres undefined)",
    "RECORDED_ENDPOINT": "GI50",
    "VAL": "15.2 µM (inactive)"
  },
  {
    "MOLECULE": "CC(=O)ON(C(C)=O)c1ccc(-c2nc3ccccc3s2)cc1C",
    "RECORDED_ENDPOINT": "GI50",
    "VAL": "2.6 µM (inactive)"
  }
]

Parameters: items (list). Returns: GI50 for each item.
1. CCCCCCCCCCCCCCCC(=O)ON1C(=S)NC(C)(c2ccccc2)C1=S (centres undefined)
2. CO/C(=N/N1CC1C(F)(F)F)c1ccncc1 (centres undefined)
3. Cc1nc2cccc([N+](=O)[O-])c2c(NCCCN(C)C)c1C
4. CC[S+]([O-])c1c2cc(OC)ccc2nc2ccc(OC)cc12 (centres undefined)
5. C=C(Br)C[N+]12CN3CN(CN(C3)C1)C2

["87.9 µM (inactive)", "> 100 µM (inactive)", "> 50.6 µM (inactive)", "21.8 µM (inactive)", "> 100 µM (inactive)"]

----------
Tested on: ACHN
Assay: NCI tumour cell line growth inhibition, 48 h
Calls of active or inactive are those of the source. Cut-off read from the data, not from the text of the source: active = GI50 up to about 1.1 µM and inactive = higher.
RECORDED_ENDPOINT: GI50

Solved entries:
[
  {
    "COMPOUND": "Cc1c(C)c2cc3c(=O)ccoc3c(C)c2oc1=O",
    "GI50": "> 100 µM (inactive)"
  },
  {
    "COMPOUND": "CC1=C(C(=O)Nc2ccc(Cl)c(Cl)c2)C(c2ccco2)C(C(=O)Nc2ccc(Cl)c(Cl)c2)=C(C)N1",
    "GI50": "5 µM (inactive)"
  },
  {
    "COMPOUND": "N#Cc1sc2c(c1OC(=O)c1ccc(Cl)cc1Cl)c(=O)n(-c1ccccc1)c(=S)n2-c1ccccc1",
    "GI50": "29 µM (inactive)"
  },
  {
    "COMPOUND": "O=c1[nH]c(=O)n(C2CC(O)C(CO)O2)cc1OC/C=C/Cc1ccccc1 (stereo unspecified)",
    "GI50": "> 100 µM (inactive)"
  },
  {
    "COMPOUND": "Cc1cc(Cl)cc2c1NC(=O)C2(O)CC(=O)c1ccc(F)cc1 (stereo unspecified)",
    "GI50": "32.5 µM (inactive)"
  },
  {
    "COMPOUND": "COc1cc(C=C(c2ccc(N(C)C)cc2)c2ccc(N(C)C)cc2)c2ccccc2c1OC",
    "GI50": "49.4 µM (inactive)"
  },
  {
    "COMPOUND": "O=C(/C=C/c1ccc(O)cc1)c1ccc2c(c1)OCO2",
    "GI50": "21.9 µM (inactive)"
  },
  {
    "COMPOUND": "COc1ccc(/N=C/c2ccc(N(CCC#N)S(=O)(=O)c3ccccc3)cc2)cc1",
    "GI50": "> 100 µM (inactive)"
  }
]

Parameters: items (list). Returns: GI50 for each item.
1. CCc1nn(CN2CCN(C)CC2)c(=S)n1/N=C\c1ccc(-c2ccc([N+](=O)[O-])cc2)o1
2. O=C1Cc2c(-c3ccc(Cl)cc3)cc(-c3ccccc3)nc2-c2ccccc2N1

1. 36.9 µM (inactive)
2. 5.09 µM (inactive)
